Source listed as PubChem BioAssay (NCI).

- Test system: UACC-257 melanoma
- Method Description: NCI tumour cell line growth inhibition, 48 h

Compound	TGI
CS(=O)(=O)NNS(=O)(=O)c1ccccc1	> 100 µM
O=C(O)c1cn(C2CC2)c2cc(N3CCN(C(=O)Nc4nc(-c5ccccc5)cs4)CC3)c(F)cc2c1=O	7.58 µM
CN=C(NC(=S)N(C)C)N(C)C	> 100 µM
CCOC(=O)c1c(C)n(Cc2ccccc2)c2c1cc(O)c1[nH]c(Cc3ccccc3)nc12	> 70.2 µM
CC(=O)OC1C(C)OC(OC(=O)C2CCC3C(C2)OC2(CC(OC(=O)/C=C/c4ccccc4)C(C)CO2)C32CO2)C(OC2OC(C)C(O)C(OC(C)=O)C2O)C1O (stereo not given)	< 0.0137 µM
C#CC[N+](C)(CC#C)CC#C	> 100 µM
CC1(C)O[C@@H](CCl)C[C@H](C#N)O1	> 100 µM
Cc1cc2cc3ccc(N(C)C)cc3nc2cc1N	3.04 µM
Brc1ccc2[nH]cc(-c3nc(-c4c[nH]c5ncccc45)cs3)c2c1	7.26 µM
NC1=NC(c2ccc(Cl)cc2)N(c2ccc(S(N)(=O)=O)cc2)C(N)=N1 (stereo not given)	> 100 µM

* * *

- System: A549 NSCLC
- Method Description: NCI tumour cell line growth inhibition, 48 h
Reported TGI is given for each of the following compounds.
Property Name: TGI (µM)

Compound	Target	Property Name	Bound Operator	Meas Value
C=CC(OC(C)=O)c1ccc(OC(=O)C(C)C)c(OC)c1 (stereo not drawn)	A549 NSCLC	TGI	=	38.7
C[N+](C)(C)CC1CCC/C1=N/O (stereo not drawn)	A549 NSCLC	TGI	>	100
CN=C(NC(=S)N(C)C)N(C)C	A549 NSCLC	TGI	>	100
Cc1nnc2c3nnc(C)n3c3ccccc3n12	A549 NSCLC	TGI	>	100
Nc1nc(N)c(C=Nc2ccc(Br)cc2)c(Nc2ccc(Br)cc2)n1	A549 NSCLC	TGI	=	29.6
CSc1c(C#N)c(N)nc2c(N=Nc3ccc(Br)cc3)c(N)nn12	A549 NSCLC	TGI	=	25.1
CN(Cc1cccc(F)c1)c1ccc(CO)c(Cl)c1	A549 NSCLC	TGI	=	37
O=C1NC(=O)C(=Nc2cccc3c(=O)[nH][nH]c(=O)c23)C(c2nc3ccccc3s2)C1=O (stereo not drawn)	A549 NSCLC	TGI	>	100

* * *

- System: SN12C renal
- Method Description: NCI tumour cell line growth inhibition, 48 h
Property Name: TGI

Compound	Target	Meas Value
CCOP(=O)(OCC)C(c1ccccc1)N(C(=O)NC(F)(F)F)c1cccc(F)c1 (stereo unspecified)	SN12C renal	> 100 µM
CCN(Cc1ccc(F)cc1)c1ccc(CO)c(C)c1	SN12C renal	> 82.6 µM
CNC(=S)N/N=C(\C(=N/NC(=S)NC)c1ccccn1)c1ccccn1	SN12C renal	> 100 µM
NC1=NC(c2ccc(Cl)cc2)N(c2ccc(S(N)(=O)=O)cc2)C(N)=N1 (stereo unspecified)	SN12C renal	> 100 µM
CCOC(=O)c1cc(I)c(-c2cc(C)no2)n1C	SN12C renal	69.4 µM
C[N+](C)(C)CC1CCC/C1=N/O (stereo unspecified)	SN12C renal	> 100 µM

* * *

- Test system: RXF 393 renal
- Method Description: NCI tumour cell line growth inhibition, 48 h
Attribute: GI50

Compound	GI50
COc1cc2c(cc1OC)C(Sc1ccc(SC)cc1)c1c(nc(N)c(C#N)c1N)O2 (centres undefined)	1.25 µM
COc1cccc2c1-c1c(c3ccc([N+](=O)[O-])cc3c(=O)n1CCCN)C2=O	24.1 µM
CC(=O)N1N=C(c2ccc(Nc3ccnc4cc(Cl)ccc34)cc2)CC1c1ccc(Cl)cc1 (centres undefined)	5.07 µM
CC1=CC(=O)C(C(C)C)=CC1=Nc1cc(Br)c(O)c(Br)c1	3.9 µM
Brc1ccc2[nH]cc(-c3nc(-c4c[nH]c5ncccc45)cs3)c2c1	1.64 µM
C=C1C(=O)O[C@H]2[C@H]1CC/C(COC(=O)CCSCCC(=O)OC/C1=C/CC[C@@]3(C)O[C@H]3[C@H]3OC(=O)C(=C)[C@@H]3CC1)=C\CC[C@@]1(C)O[C@@H]21	0.767 µM
COc1cccc(/C=N/NC(=S)NC2CC3CCC2C3)c1O (centres undefined)	13 µM
Nc1ccccc1.[C-]#[O+].[C-]#[O+].[C-]#[O+].[C-]#[O+].[C-]#[O+].[Cr]	3.22 µM
COc1ccc(S(=O)(=O)NC2=NCCN2C(=S)SN2CCn3c2nsc3=S)cc1	4.11 µM
